- Test system: RS4-11
- EXPERIMENTAL_DETAILS: cells
- Format: functional, cell-based, Homo sapiens
- APPLIED_CONDITIONS: Homo sapiens, RS4-11
- Description: SANGER: Inhibition of human RS4-11 cell growth in a cell viability assay.
pIC50: −log10 of the molar value.
QUANTITY_KIND: pIC50

MOLECULE: CO[C@H]1C[C@@H]2CC[C@@H](C)[C@@](O)(O2)C(=O)C(=O)N2CCCC[C@H]2C(=O)O[C@H]([C@H](C)C[C@@H]2CC[C@@H](OC(=O)C(C)(CO)CO)[C@H](OC)C2)CC(=O)[C@H](C)/C=C(\C)[C@@H](O)[C@@H](OC)C(=O)[C@H](C)C[C@H](C)/C=C/C=C/C=C/1C [TEMSIROLIMUS]
TEST_SYSTEM: RS4-11
VALUE_COMPARATOR: =
VAL: 8.07
//
MOLECULE: COc1cc2ncn(-c3cc(OCc4ccccc4S(C)(=O)=O)c(C#N)s3)c2cc1OC [GSK-319347A]
TEST_SYSTEM: RS4-11;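 further: growth inhibition of RS4-11 cells, read out by a cell viability assay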
VALUE_COMPARATOR: <
VAL: 5.30

----------
- Test system: SR
- EXPERIMENTAL_DETAILS: cells
- Format: functional, cell-based, Homo sapiens
- APPLIED_CONDITIONS: Homo sapiens, SR
- Description: SANGER: Inhibition of human SR cell growth in a cell viability assay.
In this section, each of the compounds is paired with its reported IC50.

COMPOUND: COc1cc2ncn(-c3cc(OCc4ccccc4S(C)(=O)=O)c(C#N)s3)c2cc1OC [GSK-319347A]
UNITS: µM
VALUE_COMPARATOR: >
IC50: 5
--
COMPOUND: COc1cc(N2CCN(C)CC2)ccc1Nc1ncc2c(n1)N(C)c1ccccc1C(=O)N2C
UNITS: µM
VALUE_COMPARATOR: =
IC50: 6.48
--
COMPOUND: Nc1ccn([C@@H]2O[C@H](CO)[C@@H](O)C2(F)F)c(=O)n1
UNITS: µM
VALUE_COMPARATOR: =
IC50: 0.00212
--
COMPOUND: CC(=O)O[C@H]1C(=O)[C@@]2(C)[C@H]([C@H](OC(=O)c3ccccc3)[C@]3(O)C[C@H](OC(=O)[C@H](O)[C@@H](NC(=O)c4ccccc4)c4ccccc4)C(C)=C1C3(C)C)[C@]1(OC(C)=O)CO[C@@H]1C[C@@H]2O
UNITS: µM
VALUE_COMPARATOR: =
IC50: 0.0103
--
COMPOUND: CC[C@H](CO)Nc1nc(NCc2ccccc2)c2ncn(C(C)C)c2n1
UNITS: µM
VALUE_COMPARATOR: >
IC50: 16
--
COMPOUND: O=C(O)c1ccc(-c2c[nH]c3ncc(-c4ccccc4)cc23)cc1C1CCCC1
UNITS: µM
VALUE_COMPARATOR: >
IC50: 16
--
COMPOUND: Cc1cc([N+](=O)[O-])ccc1NS(=O)(=O)c1cc(Cl)ccc1Cl
UNITS: µM
VALUE_COMPARATOR: =
IC50: 4.95
--
COMPOUND: CCN(CC)CCNC(=O)c1c(C)[nH]c(/C=C2\C(=O)Nc3ccc(F)cc32)c1C
UNITS: µM
VALUE_COMPARATOR: =
IC50: 1.55

----------
- System: RT-4
- EXPERIMENTAL_DETAILS: SANGER: Inhibition of human RT4 cell growth in a cell viability assay.
- Format: functional, cell-based
- APPLIED_CONDITIONS: Homo sapiens, RT-4
pIC50: −log10 of the molar value.

COMPOUND: O=C(O)c1ccc(-c2c[nH]c3ncc(-c4ccccc4)cc23)cc1C1CCCC1 [GSK-650394]
TEST_SYSTEM: RT-4
pIC50: < 4.80

COMPOUND: C=C(c1ccc(C(=O)O)cc1)c1cc2c(cc1C)C(C)(C)CCC2(C)C [BEXAROTENE]
TEST_SYSTEM: RT-4
pIC50: < 5.10

COMPOUND: Nc1ccn([C@@H]2O[C@H](CO)[C@@H](O)C2(F)F)c(=O)n1 [GEMCITABINE]
TEST_SYSTEM: RT-4
pIC50: < 5.99
